# System: SNB-75 CNS
# protocol summary: NCI-60 one-dose screen, 48 h
# particulars: 10 µM unless noted
The panel holds about 83,000 compounds, 20% with a hit somewhere; the sample as a whole holds those more often. Activity calls are given as the source filed them. How the source made its calls: active means growth percent below 10; inactive means the rest.
Give your call using only these classes: t (active), f (inactive)

compound	label value
CC/C=C\C[C@H](F)C/C=C1/C(=O)C=C[C@@H]1C/C=C\CCCC(=O)OC	f
CCCCCCCCCCNC(=O)CCl	f
Oc1cc(O)c2c(=S)cc(-c3ccc(Cl)cc3)oc2c1	f
COc1c2ccccc2c(OC)c2[nH]c(=O)ccc12	t
O=[N+]([O-])c1cccc(C2CC(c3ccccc3)=Nc3ccccc3S2)c1 (stereo unspecified)	f

What outcome does the record of this test show for "CC/C(=C(\c1ccccc1)c1ccc(OCCNC)cc1)c1ccccc1" ? t

Recorded test call requested for CC(=O)OC1Oc2cc(C)c(C)cc2-c2oc(=O)c(-c3cc4ccc(N(C)C)cc4oc3=O)cc21 (stereo unspecified) f

Which outcome was entered for the compound CS(CCCCN=C=S)=NC(=O)c1c(F)c(F)c(F)c(F)c1F (stereo unspecified) in this test? f

Tell me the assay call for COC1C/C(=N\O)C2OC(c3ccccc3)OCC2O1 (stereo unspecified) please. f

What classification did "CCn1cc2c(cc1=O)-c1nc3ccccc3c3ccnc(c13)C2=O" end up with in this test? f

What was the test verdict on "CCN(CC)Cc1cc(Nc2c3ccc(Cl)cc3nc3c(C)cccc23)ccc1O" ? t

====

As shown below, each of these molecules has a reported growth value.
# System: MCF7 breast
# protocol summary: NCI-60 one-dose screen, 48 h (100 = growth as untreated, 0 = no growth, -100 = all killed)
# particulars: 10 µM unless noted
# Procedure: Growth inhibition of the MCF7 human tumor cell line is measured as a screen for anti-cancer activity. Cells are grown in 96 well plates and exposed to the test compound for 48 hours. Compounds are tested at a single concentration, which is 10^-5 M for most compounds. The reported endpoint is percent growth (GI% or GIPRCNT), where numbers from 0 - 100% represent growth inhibition, and numbers from -100% - 0 represent cell death. For example, a value of 40 represents 60% growth inhibition. […]
This is part of a sample that, as a whole, favours compounds with a hit. Of some 83,000 tested, about 20% had one in any assay.
Report the value in % with no unit label.

Solved entries (count: 6):
molecule	unit abbreviation	test value
COc1cc(OC)c(/C=C/C(=O)c2c(OC)cc(OC)cc2OC)c(OC)c1	%	19.5
CCN(CC)CC(O)c1cc(-c2ccc(Cl)cc2)nc2c(C)c(Cl)ccc12 (centres undefined)	%	-92
O=C(O)c1ccc2c(c1Sc1ccccc1)C(=O)c1ccccc1C2=O	%	95.4
O=c1c2cccc3c(NC4CCCCC4)ccc(c32)c2nc3ccccc3n12	%	13.5
CCCCCN(CCCCC)CCC[C@@H](C)[C@H]1CC[C@H]2[C@@H]3[C@H](OCCCN)C[C@@H]4C[C@H](OCCCN)CC[C@]4(C)[C@H]3C[C@H](OCCCN)[C@]12C	%	74.8
Nc1cc2nc3ccccc3sc-2cc1=O	%	44.3

Data request, read-out growth, for COc1cccc2c1C(=O)c1c(O)c3c(c(O)c1C2=O)C[C@@](O)(/C(C)=N/NC(=O)c1ccc(Cl)cc1)C[C@@H]3OC1CC(N)C(O)C(C)O1 (some centres undefined) -13.8

Can you look up the measured growth of "N#Cc1c2c(nc3n[nH]c(N)c13)CCCC2" for me? 110

GET /values?readout=growth&item= "O=C1Nc2ccccc2/C1=C/C(=N/c1nnc(-c2ccccc2)s1)c1ccccc1" 36.9

====

# Test system: BT-549 breast
# protocol summary: NCI-60 one-dose screen, 48 h (100 = growth as untreated, 0 = no growth, -100 = all killed)
# particulars: 10 µM unless noted
The panel holds about 83,000 compounds, 20% with a hit somewhere; the sample as a whole holds those more often.
readout name: growth (%)
Dear colleague, please return just the value in %, with no unit written.

compound	unit abbreviation	test value
O=S(=O)(NCCCNc1cc(-c2cn(-c3ccccc3)nc2-c2cccc(O)c2)ccn1)c1ccccc1	%	44.1
CC1(C)OCC2OC3(C(=O)O)OC(C)(C)OC3C2O1 (stereo not given)	%	105
O=[N+]([O-])c1c(F)cccc1Nc1cccc(F)c1	%	118
CCCCN(CCCC)Cc1c(C)[nH]c2cc(OC)ccc2c1=O	%	108

Turning now to a further record.
What value of growth has been reported for the following compound? "COc1cc2c(c(OC)c1OC)-c1ccc(N=NC(N)=S)c(=O)cc1[C@@H](NC(C)=O)CC2" -37.5

====

# Test system: OVCAR-8 ovarian
# protocol summary: NCI-60 one-dose screen, 48 h (100 = growth as untreated, 0 = no growth, -100 = all killed)
# particulars: 10 µM unless noted
About 83,000 compounds went through this panel and 20% of them were active in at least one assay; those are over-represented in the sample as a whole.
readout name: growth (%)
Give the quantity in %, number only.

compound	readout name	unit abbreviation	test value
CC1=N/C(=C\c2cccc(Br)c2)C(=O)O1	growth	%	105

// next item, growth requested
Returns the measured growth for the input compound. Input: COc1ccc(C2Nc3ccccc3-n3cccc32)cc1 (stereo not given) 96.6

====

# System: NCI-H226 lung
# protocol summary: NCI-60 one-dose screen, 48 h (100 = growth as untreated, 0 = no growth, -100 = all killed)
# particulars: 10 µM unless noted
The panel holds about 83,000 compounds, 20% with a hit somewhere; the sample as a whole holds those more often.
Output fulfilled for growth not less than 80%; output not fulfilled otherwise.

These solved cases illustrate the format of a correct answer.
compound	system tested	label value
C[C@]12C[C@@H](c3ccoc3)OC(=O)[C@@H]1CC[C@]1(C)[C@@H]2CC[C@@H](O)[C@]1(C)O	NCI-H226 lung	fulfilled
O=C(CN1CCN(c2cc3c(cc2F)c(=O)c(C(=O)O)cn3C2CC2)CC1)Nc1nc(-c2ccc(Cl)cc2)cs1	NCI-H226 lung	not fulfilled
O=C1c2cc3c(cc2-c2c1c1cc(F)c(F)cc1c(=O)n2C[C@H](O)CO)OCO3	NCI-H226 lung	not fulfilled
COC(=O)[C@@H]1CC[C@]2(C)[C@H](CC[C@@H]3O[C@@]32C)[C@@]1(C)CC(=O)c1ccoc1	NCI-H226 lung	fulfilled

Assess whether reported growth for "O=C1C=CC(=O)c2c1nc1n2CCCC1" sits at 80% or higher. fulfilled

Reported growth reaches at least 80% for "COc1ccc(CCN2CC=Cn3c2nc2ccccc2c3=O)cc1" ? not fulfilled

Item "O=C(Cn1cc(CN2C(=O)c3ccccc3S2(=O)=O)nn1)Nc1ccc([N+](=O)[O-])cc1Cl" with growth of 80% or above? fulfilled

// inclusive: growth at least 80%? input: "Cn1c2ccccc2c2c3c(c4c5ccccc5[nH]c4c21)C(=O)N(N)C3=O" not fulfilled

Decide: growth of "CSc1nc2sc3c(c2c(=O)n1-c1ccc(C(C)C)cc1)CCC(=O)C3" >= 80%? not fulfilled

Would you say "CCCCCCCCCCNC(=O)CCl" shows growth at minimum 80%? fulfilled

State whether the measured growth reaches 80%, counting equality as reaching it, for C=C1CC[C@@H]2[C@](C)(COC(C)=O)[C@H](OC(C)=O)CC[C@@]2(C)[C@@H]1CC(NCc1ccc(F)cc1)C1=CCOC1=O (stereo not given in full) not fulfilled

# check: growth of "CCc1ccc(C(c2ccc(CC)cc2)C(Cl)(Cl)CCl)cc1" is greater than or equal to 80% fulfilled

growth >= 80% for "CC(C)[C@@H]1CC[C@]2(C(=O)NCCCCN=C(N)N)CC[C@]3(C)[C@H](CC[C@@H]4[C@@]5(C)CCC(=O)C(C)(C)[C@@H]5CC[C@]43C)[C@@H]12" ? fulfilled

Given "O=C(CN1CCOCC1)Nc1ccc(Cn2nnc3c2C(=O)c2nnn(Cc4ccc(NC(=O)CN5CCOCC5)cc4)c2C3=O)cc1" , state whether its growth is at least 80%. not fulfilled

Dear colleague, could you confirm whether "Nc1cc2nc3ccccc3sc-2cc1=O" has growth at or above 80%? fulfilled

Exam item: decide whether the reported growth for "COc1ccc(-c2cn3c(-c4ccc(OC)cc4)cnc3c(Oc3ccc4c(C)cc(=O)oc4c3)n2)cc1" is at least 80%. not fulfilled

Evaluate "Cc1ccc(-c2nc(/C=N/Nc3cc(C)nc4ccc(Br)cc34)c(C)o2)cc1" : growth at minimum 80%? fulfilled

Dear colleague, could you confirm whether "CCOC(=O)c1cnc2ccc(Br)cc2c1Nc1cccc(S(=O)(=O)NC)c1" has growth at or above 80%? fulfilled

Determine whether this compound has growth no lower than 80%: "Nc1ccc(Nc2nccc(-c3ccc4ccccc4c3)n2)cc1" not fulfilled

====

// growth lookup, one value per entry
# System: HOP-92 NSCLC
# protocol summary: NCI-60 one-dose screen, 48 h (100 = growth as untreated, 0 = no growth, -100 = all killed)
# particulars: 10 µM unless noted
The panel holds about 83,000 compounds, 20% with a hit somewhere; the sample as a whole holds those more often.
Give just the number in %; leave the unit off.

compound	readout name	unit abbreviation	test value
NS(=O)(=O)N(c1cc(C(F)(F)F)cc(C(F)(F)F)c1)C1CCN(Cc2ccc(F)cc2)CC1	growth	%	34.9
CC[C@@H](C)OC(=O)c1nn(C(C)=O)c2ccccc12	growth	%	104
Cc1ccc2c(c1)n([O-])c1cc(Cl)ccc1[n+]2=O	growth	%	81.9
O=C(CO[N+](=O)[O-])Nc1ccc(C(=O)/C=C/c2ccc(Cl)cc2)cc1	growth	%	66.8
CCOC(=O)N1CCN(c2nc(Nc3cc(C)[nH]n3)c3ccccc3n2)CC1	growth	%	31.3
O=C(NC(Cc1ccccc1)C(=O)CCl)OCc1ccccc1 (stereo not given)	growth	%	73
COc1ccc(-c2nn(-c3ccccc3)cc2/C=C2\SC(=O)NC2=O)cc1	growth	%	96.6
CCCCCCCCCCCCCCCCCCSC1=CC(=O)C(OC)=C(OC)C1=O	growth	%	56.5
CCCCCCCCCCCCN1CCCC(C)C1 (stereo not given)	growth	%	73

May I ask what growth has been recorded for "COc1ccc(-c2c3c(nc4n[nH]c(-c5ccc(Cl)cc5)c24)-c2ccccc2C(=O)C3=O)cc1" ? 9.32
